// provenance: the NIST ThermoML archive (doi:10.1021/je201289w)

Assay: refractive index (Na D-line) (dimensionless)
Conditions: 343.15 K; 101.33 kPa; Liquid; Standard Abbe refractometry
Answer each item with its documented refractive index.
The answer should be a number; do not append a unit.

query: Reported refractive index for "CCn1cc[n+](C)c1.O=S(=O)([N-]S(=O)(=O)C(F)(F)F)C(F)(F)F" : what is it?
result: 1.41037

query: Find the recorded refractive index belonging to "CCC[N+]1(C)CCCC1.O=S(=O)([N-]S(=O)(=O)C(F)(F)F)C(F)(F)F" and report it.
result: 1.40853

query: What refractive index value was documented for this compound, "CCCCn1cc[n+](C)c1.O=S(=O)([N-]S(=O)(=O)C(F)(F)C(F)(F)C(F)(F)C(F)(F)F)C(F)(F)C(F)(F)C(F)(F)C(F)(F)F" ?
result: 1.37496

query: Bench note: what refractive index did CCOS(=O)(=O)[O-].CCn1cc[n+](C)c1 [1-ethyl-3-methylimidazolium ethyl sulfate] show?
result: 1.46723

query: Field request: refractive index | item: CCn1cc[n+](C)c1.O=S(=O)([O-])O [1-ethyl-3-methylimidazolium hydrogen sulfate]
result: 1.48727

query: Give its refractive index value. Item: CCn1cc[n+](C)c1.N#C[B-](C#N)(C#N)C#N [1-ethyl-3-methylimidazolium tetracyanoborate]
result: 1.43248

----------
Answer each item with its documented refractive index.
Test: refractive index (Na D-line) (dimensionless)
Conditions: 328.15 K; 101.33 kPa; Liquid; Standard Abbe refractometry
Enter a number only.

query: Recorded refractive index of CCn1cc[n+](C)c1.N#CN=C=[N-] [1-ethyl-3-methylimidazolium dicyanamide] , please.
result: 1.50351

query: Find the recorded refractive index belonging to CCn1cc[n+](C)c1.CS(=O)(=O)[O-] [1-ethyl-3-methylimidazolium methanesulfonate] and report it.
result: 1.48768

query: Query (molecule): CCn1cc[n+](C)c1.N#C[S-] [1-ethyl-3-methylimidazolium thiocyanate] ; field requested: refractive index
result: 1.54263

query: What value of refractive index has been reported for the following molecule? CCn1cc[n+](C)c1.O=S(=O)([O-])O [1-ethyl-3-methylimidazolium hydrogen sulfate]
result: 1.49052

----------
Hi there, I'd appreciate the recorded mass density for every entry that follows.
Conditions: 348.15 K; 101.33 kPa; Liquid; Vibrating tube method
Record the value in kg/m3, omitting the unit from your answer.

query: So what does the record say about mass density for "CCn1cc[n+](C)c1.O=S(=O)([N-]S(=O)(=O)C(F)(F)F)C(F)(F)F" ?
result: 1468.7

query: Look up mass density: CCn1cc[n+](C)c1.N#C[S-] [1-ethyl-3-methylimidazolium thiocyanate]
result: 1085.5

query: Query (compound): CCOS(=O)(=O)[O-].CCn1cc[n+](C)c1 [1-ethyl-3-methylimidazolium ethyl sulfate] ; field requested: mass density
result: 1204.2

query: Query: mass density; subject: CCn1cc[n+](C)c1.CS(=O)(=O)[O-] [1-ethyl-3-methylimidazolium methanesulfonate]
result: 1208.1

query: What value of mass density has been recorded for this entry: "CCC[N+]1(C)CCCC1.O=S(=O)([N-]S(=O)(=O)C(F)(F)F)C(F)(F)F"
result: 1382.9

query: # get_value(readout='mass density', item= "CCCCn1cc[n+](C)c1.O=S(=O)([N-]S(=O)(=O)C(F)(F)C(F)(F)C(F)(F)C(F)(F)F)C(F)(F)C(F)(F)C(F)(F)C(F)(F)F" )
result: 1552.6

query: Consider the compound shown here: CCn1cc[n+](C)c1.O=S(=O)([O-])O [1-ethyl-3-methylimidazolium hydrogen sulfate] What is its recorded mass density?
result: 1336.4

query: Please report the recorded mass density for CCn1cc[n+](C)c1.N#C[B-](C#N)(C#N)C#N [1-ethyl-3-methylimidazolium tetracyanoborate] .
result: 989.8

query: Recorded mass density of CCn1cc[n+](C)c1.N#CN=C=[N-] [1-ethyl-3-methylimidazolium dicyanamide] , please.
result: 1068.9

query: Find the recorded mass density belonging to CCn1cc[n+](C)c1.F[B-](F)(F)F [1-ethyl-3-methylimidazolium tetrafluoroborate] and report it.
result: 1242.8
